System under test: T1, Human GHR-Fc-10x His (extracellular region of human growth hormone receptor fused to human Fc) (human, UniProt P10912 50-256)
T1 construct: Captured by its 10x His-tag on a Ni-NTA sensor chip for SPR; not shown: human Fc domain of vector pAB1200 with its linker; 10x His-tag replacing the AviTag
T1 sequence (looked up): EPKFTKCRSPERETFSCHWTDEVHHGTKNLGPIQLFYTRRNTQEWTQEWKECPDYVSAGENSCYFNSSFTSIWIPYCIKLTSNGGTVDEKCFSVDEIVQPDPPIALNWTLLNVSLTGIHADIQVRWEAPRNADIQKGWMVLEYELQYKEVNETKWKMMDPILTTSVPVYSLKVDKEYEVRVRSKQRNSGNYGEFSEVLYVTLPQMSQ
Experimental protocol: SPR, GHR-Fc-10xHis captured on Ni-NTA chip, Fab as analyte, 1:1 fit
Readout kind: kon
Record the result as a number with its unit.

Prompt: Looking for the measured kon of GHR1 Fab (Fab, V domains shown, Synthetic human Fab from phage display, expressed in E. coli) VH: EVQLVESGGGLVQPGGSLRLSCAASGFNVSYSSIHWVRQAPGKGLEWVAYIYSSYGSTYYADSVKGRFTISADTSKNTAYLQMNSLRAEDTAVYYCAREYWPYYSQTGGSAMDYWGQGTLVTVSS VL: DIQMTQSPSSLSASVGDRVTITCRASQSVSSAVAWYQQKPGKAPKLLIYSASSLYSGVPSRFSGSRSGTDFTLTISSLQPEDFATYYCQQSMHPLITFGQGTKVEIKR , can you help?
Completion: 53400 M⁻¹ s⁻¹

Prompt: Looking for the measured kon of GHR14 Fab (Fab, V domains shown, Fab) VH: EVQLVESGGGLVQPGGSLRLSCAASGFNISSSYIHWVRQAPGKGLEWVASISSYYGYTSYADSVKGRFTISADTSKNTAYLQMNSLRAEDTAVYYCARSYGSYYGYYHYWEWYGLDYWGQGTLVTVSS VL: DIQMTQSPSSLSASVGDRVTITCRASQSVSSAVAWYQQKPGKAPKLLIYSASSLYSGVPSRFSGSRSGTDFTLTISSLQPEDFATYYCQQWQYWSPVTFGQGTKVEIKR , can you help?
Completion: 177000 M⁻¹ s⁻¹

Prompt: Looking for the measured kon of GHR8 Fab (Fab, V domains shown, Fab) VH: EVQLVESGGGLVQPGGSLRLSCAASGFNISYSSIHWVRQAPGKGLEWVASIYSSYGSTYYADSVKGRFTISADTSKNTAYLQMNSLRAEDTAVYYCARSYIYSQPGFYYDSYALDYWGQGTLVTVSS VL: DIQMTQSPSSLSASVGDRVTITCRASQSVSSAVAWYQQKPGKAPKLLIYSASSLYSGVPSRFSGSRSGTDFTLTISSLQPEDFATYYCQQYGSWLITFGQGTKVEIKR , can you help?
Completion: 156000 M⁻¹ s⁻¹
